Recorded measurements of half-life, one per entry
# test: Stability evaluation in aqueous buffer
# Type: physicochemical
# conditions: aqueous buffer, pH 4, pH 4 (acetate buffer), 37° C., about 50 μg/mL, about 15% v/v acetonitrile; read-out: Stability (t1/2, h) at 37° C. pH 4 (converted)
Where a name gives a salt, the structure may show the parent alone.
Give the quantity in h, number only.

Observe how each entry below is paired with its result.
Cc1c(-c2c(C(C)C)c3cc(C4CCN(CC(N)=O)CC4)ccc3n2C(=O)OCOC(=O)C2(N)CC2)cn2ncnc2c1C [Example 15, trifluoroacetate]    139
Cc1c(-c2c(C(C)C)c3cc(C4CCN(CC(N)=O)CC4)ccc3n2C(=O)CN(C)C(=O)OCOP(=O)(O)O)cn2ncnc2c1C    207

The molecule Cc1c(-c2c(C(C)C)c3cc(C4CCN(CC(N)=O)CC4)ccc3n2C(=O)OCOP(=O)(O)O)cn2ncnc2c1C showed half-life equal to 7.5

The molecule Cc1c(-c2c(C(C)C)c3cc(C4CCN(CC(N)=O)CC4)ccc3n2C(=O)OC(C)OC(=O)C2(N)CC2)cn2ncnc2c1C (single isomer, unassigned) [Example 6, ditrifluoroacetate] showed half-life equal to 415

---

# test: Solubility evaluation in aqueous buffer
# Type: physicochemical
# conditions: aqueous buffer, 25 °C, pH 4, aqueous buffer, thermodynamic from solid, aqueous buffer pH 4, 25° C., about 24 hours equilibration; read-out: Solubility (mg/mL) at 25° C. pH 4
Counter-ions that a name gives are not always drawn.
Recorded measurements of solubility, one per entry

Observe how each entry below is paired with its result.
Cc1c(-c2c(C(C)C)c3cc(C4CCN(CC(N)=O)CC4)ccc3n2C(=O)OC[C@@H]2CCCCN2)cn2ncnc2c1C [Example 1]    > 1.28 mg/mL
CNCC(=O)n1c(-c2cn3ncnc3c(C)c2C)c(C(C)C)c2cc(C3CCN(CC(N)=O)CC3)ccc21 [Example 5, ditrifluoroacetate]    > 2.15 mg/mL
Cc1c(-c2[nH]c3ccc(C4CC[N+](COC(=O)N(C)CCOP(=O)(O)O)(CC(N)=O)CC4)cc3c2C(C)C)cn2ncnc2c1C (single isomer, unassigned) [Example 20, trifluoroacetate]    > 1.87 mg/mL
CNCCN(C)C(=O)OC[N+]1(CC(N)=O)CCC(c2ccc3[nH]c(-c4cn5ncnc5c(C)c4C)c(C(C)C)c3c2)CC1 (stereo not shown) [Example 23, trifluoroacetate]    > 0.85 mg/mL
CNCC(=O)OCc1cccnc1N(C)C(=O)OC(C)[N+]1(CC(N)=O)CCC(c2ccc3[nH]c(-c4cn5ncnc5c(C)c4C)c(C(C)C)c3c2)CC1 (stereo not shown) [Example 14]    > 0.98 mg/mL

The compound Cc1c(-c2c(C(C)C)c3cc(C4CCN(CC(N)=O)CC4)ccc3n2C(=O)OCOC(=O)C2(N)CC2)cn2ncnc2c1C [Example 15, trifluoroacetate] showed solubility equal to > 0.9 mg/mL

---

# test: Stability evaluation in aqueous buffer
# Format: physicochemical
# conditions: aqueous buffer, pH 6.5, pH 6.5 (phosphate buffer), 37° C., about 50 μg/mL, about 15% v/v acetonitrile; read-out: Stability (t1/2, h) at 37° C. pH 6.5 (converted)
Structures can show the parent of a compound that is named as a salt.
assay-metric: log10 of half-life (log10 of the value in h)
Hi team, quick reminder: these entries are log10 of half-life (h).

Cc1c(-c2c(C(C)C)c3cc(C4CCN(CC(N)=O)CC4)ccc3n2C(=O)OCOP(=O)(O)O)cn2ncnc2c1C [Example 16]    -1.00
CNCCN(C)C(=O)OC[N+]1(CC(N)=O)CCC(c2ccc3[nH]c(-c4cn5ncnc5c(C)c4C)c(C(C)C)c3c2)CC1 (stereo not drawn) [Example 23, trifluoroacetate]    -1.00
Cc1c(-c2c(C(C)C)c3cc(C4CCN(CC(N)=O)CC4)ccc3n2C(=O)OC[C@@H]2CCCN2)cn2ncnc2c1C [Example 3]    2.00

The compound Cc1c(-c2c(C(C)C)c3cc(C4CCN(CC(N)=O)CC4)ccc3n2C(=O)OCOC(=O)C2(N)CC2)cn2ncnc2c1C [Example 15, trifluoroacetate] showed log10 of half-life equal to 1.59

The compound Cc1c(-c2c(C(C)C)c3cc(C4CCN(CC(N)=O)CC4)ccc3n2C(=O)OC(C)OC(=O)C2(N)CC2)cn2ncnc2c1C (single isomer, unassigned) [Example 6, ditrifluoroacetate] showed log10 of half-life equal to 2.03

The compound Cc1c(-c2c(C(C)C)c3cc(C4CCN(CC(N)=O)CC4)ccc3n2C(=O)OC[C@@H]2CCCCN2)cn2ncnc2c1C [Example 1] showed log10 of half-life equal to 2.34

The compound Cc1c(-c2c(C(C)C)c3cc(C4CCN(CC(N)=O)CC4)ccc3n2C(=O)OC[C@@H]2CCCCN2C(=O)OCOP(=O)(O)O)cn2ncnc2c1C [Example 2] showed log10 of half-life equal to 2.43

The compound CNCC(=O)n1c(-c2cn3ncnc3c(C)c2C)c(C(C)C)c2cc(C3CCN(CC(N)=O)CC3)ccc21 [Example 5, ditrifluoroacetate] showed log10 of half-life equal to 0.65
